target: human proteinase 3 (Homo sapiens, UniProt P24158); construct: purchased Elastin Products Company, USA; assay: Inhibition of human proteinase 3 (Boc-Ala-Ala-Nva-SBzl); assay type: biochemical; settings: ratio of hPr3 IC50 to hNE IC50
Sequence (P24158 28-248): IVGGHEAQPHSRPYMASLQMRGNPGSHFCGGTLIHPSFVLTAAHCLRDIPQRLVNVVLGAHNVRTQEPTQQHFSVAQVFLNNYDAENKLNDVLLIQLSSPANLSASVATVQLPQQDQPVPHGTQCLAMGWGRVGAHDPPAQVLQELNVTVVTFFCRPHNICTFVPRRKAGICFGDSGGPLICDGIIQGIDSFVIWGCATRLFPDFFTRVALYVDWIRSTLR
Non-standard residues stand in square brackets, D forms with d. Residues, ends and D or L forms follow the SMILES beside them. Gly(octyl) = CCCCCCCC[C@H](N)C(=O)O
As shown below, each of these compounds has a reported hNE/hPr3 selectivity value.
Give the figure only, with no unit attached.

Example entries begin here.
>  <compound>
CC[C@H](C)[C@@H]1NC(=O)[C@H](CO)NC(=O)[C@H](C)NC(=O)[C@H]([C@@H](C)O)NC(=O)[C@H](CCC(=O)O)NC(=O)[C@H](CCCNC(=N)N)NC(=O)[C@@H]2CCCN2C(=O)[C@H]2CCCN2C(=O)[C@H](CO)NC(=O)[C@H](CCCCN)NC(=O)[C@H](Cc2ccc(O)cc2)NC(=O)[C@@H]2CCCN2C(=O)[C@@H]2CCCN2C1=O [Example 8] (cyclo(RETASIPPYKS[dP]P))

>  <measure>
hNE/hPr3 selectivity

>  <number>
5372

$$$$
>  <compound>
CCCCCCCC[C@@H]1NC(=O)[C@@H]2CCCN2C(=O)[C@H]2CCCN2C(=O)[C@H](CC(N)=O)NC(=O)[C@H](CCCCN)NC(=O)[C@H](CCC(N)=O)NC(=O)[C@@H]2CCCN2C(=O)[C@@H]2CCCN2C(=O)[C@H]([C@@H](C)CC)NC(=O)[C@H](CO)NC(=O)[C@H](C)NC(=O)[C@H]([C@@H](C)O)NC(=O)[C@H](CCC(=O)O)NC1=O [Example 1] (cyclo([Gly(octyl)]ETASIPPQKN[dP]P))

>  <measure>
hNE/hPr3 selectivity

>  <number>
342

$$$$

Here is the next item to consider.
Quick check: hNE/hPr3 selectivity on human proteinase 3 (Homo sapiens, UniProt P24158), item CCCCCCCC[C@@H]1NC(=O)[C@@H]2CCCN2C(=O)[C@H]2CCCN2C(=O)[C@H]([C@@H](C)O)NC(=O)[C@H](CCCCN)NC(=O)[C@H](Cc2ccc(O)cc2)NC(=O)[C@@H]2CCCN2C(=O)[C@@H]2CCCN2C(=O)[C@H]([C@@H](C)CC)NC(=O)[C@H](CO)NC(=O)[C@H](C)NC(=O)[C@H]([C@@H](C)O)NC(=O)[C@H](CCC(=O)O)NC1=O [Example 2] (cyclo([Gly(octyl)]ETASIPPYKT[dP]P)) ?
282

###

biological target: porcine pancreatic elastase (Sus scrofa); construct: purchased Sigma, USA; test: Inhibition of porcine pancreatic elastase (MeOSuc-AAA-pNA hydrolysis); assay type: biochemical; conditions: 15 nM enzyme, 1 mM substrate, 37° C., pH8; read-out: Porcine pancreatic elastase (PPE) IC50
Sequence (P00772 27-266): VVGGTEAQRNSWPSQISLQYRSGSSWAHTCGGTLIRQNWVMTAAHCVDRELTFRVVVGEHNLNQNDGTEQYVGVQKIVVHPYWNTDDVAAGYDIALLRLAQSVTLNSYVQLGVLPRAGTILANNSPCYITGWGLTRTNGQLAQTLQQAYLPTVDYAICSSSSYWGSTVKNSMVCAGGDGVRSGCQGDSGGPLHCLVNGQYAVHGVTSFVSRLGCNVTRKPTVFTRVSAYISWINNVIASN
Non-standard residues stand in square brackets, D forms with d. Residues, ends and D or L forms follow the SMILES beside them. Gly(octyl) = CCCCCCCC[C@H](N)C(=O)O
As shown below, each of these compounds has a reported pIC50 value.
Quick note: pIC50 means taking -log10 of the concentration in moles per liter.

Example entries begin here.
>  <compound>
CCCCCCCC[C@@H]1NC(=O)[C@@H]2CCCN2C(=O)[C@H]2CCCN2C(=O)[C@H](CC(N)=O)NC(=O)[C@H](CCCCN)NC(=O)[C@H](CCC(N)=O)NC(=O)[C@@H]2CCCN2C(=O)[C@@H]2CCCN2C(=O)[C@H]([C@@H](C)CC)NC(=O)[C@H](CO)NC(=O)[C@H](C)NC(=O)[C@H]([C@@H](C)O)NC(=O)[C@H](CCC(=O)O)NC1=O [Example 1] (cyclo([Gly(octyl)]ETASIPPQKN[dP]P))

>  <tgt>
porcine pancreatic elastase (Sus scrofa)

>  <pIC50>
5.81

$$$$
>  <compound>
CC[C@H](C)[C@@H]1NC(=O)[C@H](CO)NC(=O)[C@H](C)NC(=O)[C@H]([C@@H](C)O)NC(=O)[C@H](CCC(=O)O)NC(=O)[C@H](CCCNC(=N)N)NC(=O)[C@@H]2CCCN2C(=O)[C@H]2CCCN2C(=O)[C@H](CO)NC(=O)[C@H](CCCCN)NC(=O)[C@H](Cc2ccc(O)cc2)NC(=O)[C@@H]2CCCN2C(=O)[C@@H]2CCCN2C1=O [Example 8] (cyclo(RETASIPPYKS[dP]P))

>  <tgt>
porcine pancreatic elastase (Sus scrofa)

>  <pIC50>
4.34

$$$$
>  <compound>
CCCCCCCC[C@@H]1NC(=O)[C@@H]2CCCN2C(=O)[C@H]2CCCN2C(=O)[C@H]([C@@H](C)O)NC(=O)[C@H](CCCCN)NC(=O)[C@H](CCC(N)=O)NC(=O)[C@@H]2CCCN2C(=O)[C@@H]2CCCN2C(=O)[C@H]([C@@H](C)CC)NC(=O)[C@H](CO)NC(=O)[C@H](C)NC(=O)[C@H]([C@@H](C)O)NC(=O)[C@H](CCC(=O)O)NC1=O [Example 4] (cyclo([Gly(octyl)]ETASIPPQKT[dP]P))

>  <tgt>
porcine pancreatic elastase (Sus scrofa)

>  <pIC50>
5.56

$$$$

Here is the next item to consider.
I'd like to know its pIC50. The compound in question is CCCCCCCC[C@@H]1NC(=O)[C@@H]2CCCN2C(=O)[C@H]2CCCN2C(=O)[C@H]([C@@H](C)O)NC(=O)[C@H](CCCCN)NC(=O)[C@H](Cc2ccc(O)cc2)NC(=O)[C@@H]2CCCN2C(=O)[C@@H]2CCCN2C(=O)[C@H]([C@@H](C)CC)NC(=O)[C@H](CO)NC(=O)[C@H](C)NC(=O)[C@H]([C@@H](C)O)NC(=O)[C@H](CCC(=O)O)NC1=O [Example 2] (cyclo([Gly(octyl)]ETASIPPYKT[dP]P))
6.28
